Test system: human C1q
Assay: Reverse ELISA: inhibition of PAP immune complex binding to C1q coated plates
Conditions: PAP pre-incubated with peptide or C1q one hour, C1q coated plates; lower OD = more inhibition; positive control 2.355
Ends that are not written are not given here.
Measured Property: OD 405 nm

# Substance, Recorded Measurement
measured = [
    ("Ala-Pro-Pro-Asp-Cys-Ala-Trp-His-Leu-Gly-Glu-Leu-Val-Trp-Cys-Thr (APPDCAWHLGELVWCT) [SEQ ID NO:20]", 0.389),
    ("Asp-Cys-Ala-Phe-His-Leu-Gly-Glu-Leu-Val-Trp-Cys-Thr (DCAFHLGELVWCT) [SEQ ID NO:3]", 0.859),
    ("Asp-Cys-Ala-Trp-His-Leu-Gly-Glu-Leu-Val-Trp-Cys-Thr [SEQ ID NO:2]", 1.100),
    ("APPCAFHLGELVWCT (cysteine pairing not given here) [SEQ ID NO:18]", 0.983),
    ("APPCAWHLGELVWCT (cysteine pairing not given here) [SEQ ID NO:14]", 1.148),
    ("APPCARHLGELVWCT (cysteine pairing not given here) [SEQ ID NO:16]", 0.567),
]
